tested on: LXFL 529; assay: NCI tumour cell line growth inhibition, 48 h
Calls of active or inactive are those of the source. Rule as the data show it: active = GI50 up to about 1.1 µM and inactive = higher.
Select the correct class. Options are 1 (yes) for active, 0 (no) for inactive and nothing else.

# Molecule, System under test, Classification
rows = [
    ("N#C/C(=C\\c1ccc(O)c(O)c1)C(N)=O", "LXFL 529", "0 (no)"),
    ("CC1=CC2CC(C)=C(CC[C@]3(C)CC[C@H]([C@@H](C)C(=O)O)OO3)C(C)(C)C2CC1 (some centres not stated)", "LXFL 529", "1 (yes)"),
    ("COc1cccc2nc3c(C(=O)NCCN(C)C)cccc3nc12", "LXFL 529", "0 (no)"),
]

Incoming: Per the records of this test, what outcome belongs to COC(=N)C(C)C ?
Outgoing: 0 (no)

Incoming: Outcome logged for N#CC1(Cc2ccccc2[N+](=O)[O-])c2ccccc2C2C(N1C(=O)c1ccccc1)C2(Cl)Cl (configuration not stated) in this assay:
Outgoing: 0 (no)

Incoming: Test call for this molecule, please: COC1(C)Cc2c(c(C)c(O)c3c2C(=O)C=C(Cl)C3=O)O1 (configuration not stated)
Outgoing: 0 (no)

Incoming: Recorded test call requested for Cc1nc(Nc2nnc(-c3cc([N+](=O)[O-])cc([N+](=O)[O-])c3C)o2)sc1C(=O)CC(=O)Cc1nc2ccc(Cl)cc2nc1O
Outgoing: 0 (no)

Incoming: Hello, I am checking results. What call was entered for CN(C)/C=C/C(=CC=[N+](C)C)/C=C/N(C)C.[O-][Cl+3]([O-])([O-])[O-] ?
Outgoing: 0 (no)

Incoming: Field: outcome | Entry: Cc1ccccc1NC(=O)c1ccc([N+](=O)[O-])cc1
Outgoing: 0 (no)

Incoming: Which result was noted for this molecule in the test: CCOC(=O)/C(C(C)=O)=C1/N[C@H](C(=O)OCC)CS1
Outgoing: 0 (no)

Incoming: What was the test verdict on CCN(CC)CC1CCCCN1CC(=O)N1CC(C)C(=O)Nc2ccccc21 (configuration not stated) ?
Outgoing: 0 (no)

Incoming: Short answer needed: outcome of this test for CC#CC#C/C=C1\C=CC2(OC=CC2OC(C)=O)O1 (configuration not stated) ?
Outgoing: 0 (no)

Incoming: What was the test verdict on O=C(/C=C/c1ccc(Cl)cc1)c1ccc(Cl)c(Cl)c1 ?
Outgoing: 0 (no)

Incoming: Fill in: this test's call for O=C(NC1C(=O)NNC1c1ccccc1Cl)c1ccccc1 (configuration not stated) is ___
Outgoing: 0 (no)

###

tested on: NCI-H226; assay: NCI tumour cell line growth inhibition, 48 h
The source made the active and inactive calls. No stated cut-off is given here; in the data, active = GI50 up to about 1.1 µM and inactive = higher.
Hi! Could you answer with just one of these? class 1 = active, class 0 = inactive

Sample answers from the record:
# Compound, Classification
measured = [
    ("CCN(CC)CC1CCCCN1CC(=O)N1CC(C)C(=O)Nc2ccccc21 (stereo not given)", "class 0"),
    ("CCOC(=O)c1ccc(-c2cc(C)[nH]n2)[nH]1", "class 0"),
    ("CCCCNC(=S)Nc1nc(C(=O)NNC(=S)NCC)cs1", "class 0"),
]

Incoming: # lookup: test call for Cc1ccc(NC(=O)C(=O)C2C(=O)NC(=O)NC2=O)c(C)c1
Outgoing: class 0

Incoming: For this compound, state the assay outcome: O=S(=O)(O)c1cc(S(=O)(=O)O)c2c(/N=N/c3ccc(S(=O)(=O)O)c4ccccc34)c(O)ccc2c1
Outgoing: class 0

Incoming: Returns: the outcome recorded for Clc1cccc2[nH]ncc12 in this assay.
Outgoing: class 0

Incoming: Which outcome did this test record for the compound COc1ccc(OC)c2c3c([nH]c12)C(=O)Nc1nc(N)nc(N)c1C3 ?
Outgoing: class 0

Incoming: Each compound tested received a call. Report the one for O=C(O)C(Cc1ccccc1-c1ccccc1)C(=O)O .
Outgoing: class 0

Incoming: What did the test return for Nc1nc(N)c2nnn(C[C@H]3CC[C@@H](CO)C3)c2n1 ?
Outgoing: class 0

Incoming: In this assay, the call recorded for CN1CCN(C(=S)N(C(=O)c2ccc(Cl)cc2)C2CCCCC2)CC1 was what?
Outgoing: class 0
